assay: Cmax in leukopenic mouse with renal failure at 15 mg/kg, sc after 0.5 hrs; format: ADME, organism-based; parameters: dose 15 mg/kg, route subcutaneous; conditions: in vivo
reportedProperty: Cmax (ng/mL)

>>> readoutvalue("CC1(C)S[C@@H]2[C@H](NC(=O)[C@H](N)c3ccc(O)cc3)C(=O)N2[C@H]1C(=O)O")
28000

* * *

test: Half life in leukopenic mouse with renal failure at 25 mg/kg, sc; type: ADME, organism-based; design: dose 25 mg/kg, route subcutaneous; details: in vivo
reportedProperty: half-life (h)

>>> readoutvalue("CC1(C)S[C@@H]2[C@H](NC(=O)[C@H](N)c3ccc(O)cc3)C(=O)N2[C@H]1C(=O)O")
1.7
